Items are presented alongside their recorded growth inhibition.
Experiment: NCI Yeast Anticancer Drug Screen. Data for the cln2 rad14 strain (AID 165);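 also: 0% = growth equal to vehicle treated cultures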
Conditions: S. cerevisiae cln2 rad14 strain, at 50.0 µM, active compounds read high
Description: Growth inhibition of yeast strains with defined genetic alterations is measured as a screen for potential anti-cancer activity. Selected strains with alterations in DNA damage repair or cell cycle control were exposed to compounds and growth inhibition was measured relative to vehicle treated controls. The strain used in this assay is cln2 rad14
The panel holds about 79,000 compounds, 15% with a hit somewhere; the sample as a whole holds those more often.
// return numeric value only (unit: %, not printed)

Recorded growth inhibition, per entry:
In [3]: df
Out[3]:
                                   compound  meas_value
0  O=C1C(c2ccccc2Cl)[C@H]2CC=C[C@H]2N1O (some centres not stated)        6.65
1                  O/N=C/c1ccc(Cc2ccccc2)o1       -18.8
2  O=C(O)CCCC1CCC2NC(=O)NC2C1 (configuration not stated)         6.4
3  CCOc1cc2c(cnc3c4cc(OC)c(OC)cc4ccc23)cc1OC       -6.25
4         CN(C)C1(C(=O)O)c2ccccc2-c2ccccc21       -3.45
5                     CC12CCC(=O)C3C1CCCC32         1.2

Data request: Using the record for "O=[N+]([O-])c1ccc2c(c1)Sc1ccccc1N2CCCCCl" , state its measured growth inhibition.
Data returned: -7.25

Data request: Output measured growth inhibition for this item: "COc1ccc(CC(=O)OCCCl)cc1OC"
Data returned: -26.4

Data request: Answer with the recorded growth inhibition of "C[S+](C)CCS(=O)(=O)[O-]" only.
Data returned: -30.4

Data request: Look up and report measured growth inhibition for this entry: "O=[N+]([O-])C(/C=C(\Cl)[N+](=O)[O-])=C1Nc2ccccc2N1"
Data returned: 19.4

Data request: Note growth inhibition for the compound shown: Cc1nn(C(=O)c2ccc(Cl)cc2)c2c1C(c1ccccc1[N+](=O)[O-])SC(N)=N2 (configuration not stated)
Data returned: 33

Data request: Fill in growth inhibition for record CC(O)CNC(=O)C(C)Oc1ccc(OCC2CCCCC2)cc1 (configuration not stated)
Data returned: -9.7
